- MEASURED ON: equine FcRn (large alpha subunit p51) / equine beta-2-microglobulin complex, biotinylated (equine) (UniProt P30441)
- TEST PROTOCOL: SPR (Biacore), pH 6
ENDPOINT NAME: pKd
FYI, pKd means -log10 of a concentration in mol per litre.

Query: # lookup: pKd of equine IgG1 M428G (antibody, part only; not given: variable domains, not shown: another chain or arm of the molecule) constant: ASTTAPKVFALAPGCGTTSDSTVALGCLVSGYFPEPVKVSWNSGSLTSGVHTFPSVLQSSGFYSLSSMVTVPASTWTSETYICNVVHAASNFKVDKRIEPIPDNHQKVCDMSKCPKCPAPELLGGPSVFIFPPNPKDTLMITRTPEVTCVVVDVSQENPDVKFNWYMDGVEVRTATTRPKEEQFNSTYRVVSVLRIQHQDWLSGKEFKCKVNNQALPQPIERTITKTKGRSQEPQVYVLAPHPDELSKSKVSVTCLVKDFYPPEINIEWQSNGQPELETKYSTTQAQQDSDGSYFLYSKLSVDRNRWQQGTTFTCGVGHEALHNHYTQKNVSKNPGK
Response: 7.31
